Tested on: MCF7
Measurement protocol: Cytotoxicity against human MCF7 cells incubated for 72 hrs by MTT assay
Details: MCF7, 72 h
Field: label. Allowed values: condition met (IC50 < 8 µM) or condition not met (IC50 >= 8 µM).

[
  {
    "Compound": "COc1ccc(/C=C/C(=O)c2ccc(Br)c3c2OC(C)(C)C=C3)cc1OCC(=O)Nc1ccccc1N",
    "System": "MCF7",
    "Label class": "condition met"
  },
  {
    "Compound": "COc1ccc(/C=C/C(=O)c2ccc(Br)c3c2OC(C)(C)C=C3)cc1NCC(=O)Nc1ccccc1N",
    "System": "MCF7",
    "Label class": "condition met"
  },
  {
    "Compound": "COc1ccc(/C=C/C(=O)c2ccc(OC)c3c2OC(C)(C)C=C3)cc1NCCCCCCC(=O)Nc1ccccc1N",
    "System": "MCF7",
    "Label class": "condition not met"
  },
  {
    "Compound": "COc1ccc(/C=C/C(=O)c2ccc(OC)c3c2OC(C)(C)C=C3)cc1OCCCCCC(=O)NO",
    "System": "MCF7",
    "Label class": "condition met"
  },
  {
    "Compound": "COc1ccc(/C=C/C(=O)c2ccc(OC)c3c2OC(C)(C)C=C3)cc1OCCCCCCC(=O)NO",
    "System": "MCF7",
    "Label class": "condition not met"
  },
  {
    "Compound": "COc1ccc(/C=C/C(=O)c2ccc(OC)c3c2OC(C)(C)C=C3)cc1 [MILLEPACHINE]",
    "System": "MCF7",
    "Label class": "condition met"
  },
  {
    "Compound": "COc1ccc(/C=C/C(=O)c2ccc(OC)c3c2OC(C)(C)C=C3)cc1OCC(=O)Nc1ccccc1N",
    "System": "MCF7",
    "Label class": "condition not met"
  },
  {
    "Compound": "COc1ccc(/C=C/C(=O)c2ccc(OC)c3c2OC(C)(C)C=C3)cc1NCC(=O)Nc1ccccc1N",
    "System": "MCF7",
    "Label class": "condition met"
  },
  {
    "Compound": "COc1ccc(/C=C/C(=O)c2ccc(OC)c3c2OC(C)(C)C=C3)cc1OCCCC(=O)Nc1ccccc1N",
    "System": "MCF7",
    "Label class": "condition not met"
  },
  {
    "Compound": "COc1ccc(/C=C/C(=O)c2ccc(OC)c3c2OC(C)(C)C=C3)cc1OCCCCCC(=O)Nc1ccccc1N",
    "System": "MCF7",
    "Label class": "condition not met"
  },
  {
    "Compound": "COc1ccc(/C=C/C(=O)c2ccc(Cl)c3c2OC(C)(C)C=C3)cc1NCC(=O)Nc1ccccc1N",
    "System": "MCF7",
    "Label class": "condition met"
  },
  {
    "Compound": "COc1ccc(/C=C/C(=O)c2ccc(Cl)c3c2OC(C)(C)C=C3)cc1OCC(=O)NO",
    "System": "MCF7",
    "Label class": "condition met"
  },
  {
    "Compound": "COc1ccc(/C=C/C(=O)c2ccc(OC)c3c2OC(C)(C)C=C3)cc1NCCCCCC(=O)Nc1ccccc1N",
    "System": "MCF7",
    "Label class": "condition not met"
  },
  {
    "Compound": "COc1ccc(/C=C/C(=O)c2ccc(Cl)c3c2OC(C)(C)C=C3)cc1OCC(=O)Nc1ccccc1N",
    "System": "MCF7",
    "Label class": "condition not met"
  },
  {
    "Compound": "COc1ccc(/C=C/C(=O)c2ccc(Br)c3c2OC(C)(C)C=C3)cc1NCC(=O)NO",
    "System": "MCF7",
    "Label class": "condition met"
  },
  {
    "Compound": "COc1ccc(/C=C/C(=O)c2ccc(OC)c3c2OC(C)(C)C=C3)cc1OCCCCC(=O)Nc1ccccc1N",
    "System": "MCF7",
    "Label class": "condition not met"
  },
  {
    "Compound": "COc1ccc(/C=C/C(=O)c2ccc(OC)c3c2OC(C)(C)C=C3)cc1OCC(=O)NO",
    "System": "MCF7",
    "Label class": "condition met"
  },
  {
    "Compound": "COc1ccc(/C=C/C(=O)c2ccc(OC)c3c2OC(C)(C)C=C3)cc1NCCCCCC(=O)NO",
    "System": "MCF7",
    "Label class": "condition not met"
  }
]
